Biological target: Calcium-dependent protein kinase 4 (Plasmodium falciparum (isolate 3D7))
Assay: PfCDPK4 kinase inhibitors, biochemical, TCAMS library (AID 1159588)
Conditions: recombinant PfCDPK4, Kinase-Glo ATP depletion luminescence
MEASURED PARAMETER: IC50

Recorded IC50, per entry:
{"COMPOUND": "CCN(CC)CCNC(=O)c1ccc(N=Cc2c(O)[nH]c3ccc(S(=O)(=O)Cc4c(Cl)cccc4Cl)cc23)cc1", "IC50": "73 nM"}
{"COMPOUND": "CCn1c(-c2nonc2N)nc2c(-c3cccc(Cl)c3)ncc(OCCCNCc3cnc(C)nc3N)c21", "IC50": "145 nM"}
{"COMPOUND": "O=C(NCC(c1ccc(C(F)(F)F)cc1)N1CCCC1)c1cc(-c2ccncc2)c(-c2cccc(O)c2)o1 (configuration not stated)", "IC50": "178 nM"}

The compound listed as `NCCCNc1nc(Nc2cccc(C(N)=O)c2)c2c(=O)[nH]ccc2n1` has a reported IC50 of 967 nM

Please fill in: IC50 reported for `Cc1[nH]nc2ccc(-c3cc(OC[C@@H](N)Cc4ccccc4)cnc3-c3cc4ccccc4s3)cc12` = 563 nM

The compound identified as `Cc1csc(-c2ncc(OC[C@@H](N)Cc3ccccc3)cc2-c2ccc3n[nH]c(C)c3c2)c1` registered its IC50 at 420 nM

Form: compound = `CCn1c(-c2nonc2N)nc2c(-c3cccc(NC(=O)Nc4cccc(C(F)(F)F)c4)c3)ncc(OCCCN)c21` ; IC50 = 342 nM

compound `O=C(Nc1cccc(-c2nn3ncccc3c2-c2ccnc(Nc3cccc(-c4cnco4)c3)n2)c1)c1c(F)cccc1F` , IC50 observed: 145 nM

----------
Molecular target: Calcium-dependent protein kinase 4 (Plasmodium falciparum (isolate 3D7)) (UniProt Q8IBS5)
Sequence (Q8IBS5 whole entry, looked up): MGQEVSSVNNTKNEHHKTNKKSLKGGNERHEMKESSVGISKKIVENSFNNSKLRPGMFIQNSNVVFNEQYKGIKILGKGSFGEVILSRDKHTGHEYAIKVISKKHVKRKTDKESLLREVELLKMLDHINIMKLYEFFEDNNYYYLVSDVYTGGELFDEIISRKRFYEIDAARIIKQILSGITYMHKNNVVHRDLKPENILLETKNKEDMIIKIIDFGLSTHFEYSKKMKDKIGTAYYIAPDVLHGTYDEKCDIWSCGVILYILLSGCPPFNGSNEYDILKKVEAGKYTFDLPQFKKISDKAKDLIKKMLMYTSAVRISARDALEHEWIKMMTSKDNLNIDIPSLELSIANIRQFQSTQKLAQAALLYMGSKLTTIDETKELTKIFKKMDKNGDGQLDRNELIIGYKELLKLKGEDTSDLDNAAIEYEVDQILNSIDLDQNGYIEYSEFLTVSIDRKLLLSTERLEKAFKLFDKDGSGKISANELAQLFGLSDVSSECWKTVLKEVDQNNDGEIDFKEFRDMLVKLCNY
Experiment: PfCDPK4 kinase inhibitors, biochemical, TCAMS library (AID 1159588)
Settings: recombinant PfCDPK4, Kinase-Glo ATP depletion luminescence
MEASURED PARAMETER: IC50

{"MOLECULE": "CS(=O)(=O)Cc1ccc(Nc2nccc(-c3c(-c4cccc(C(=O)Nc5c(F)cccc5F)c4)nn4ccccc34)n2)cc1", "ASSAY VALUE": "65 nM"}
{"MOLECULE": "COCCOc1ccc(Nc2nccc(-c3c(-c4cccc(NC(=O)c5c(F)cccc5F)c4)nn4ccccc34)n2)cc1Cl", "ASSAY VALUE": "853 nM"}
{"MOLECULE": "CC(C)(CN)c1cc(-c2ccc(Cl)c(O)c2)c(-c2ccncc2)o1", "ASSAY VALUE": "433 nM"}
{"MOLECULE": "Cc1[nH]c(/C=C2\\C(=O)Nc3ccc(S(=O)(=O)Cc4c(Cl)cccc4Cl)cc32)c(C)c1C(=O)N1CCC[C@@H]1CN1CCCC1", "ASSAY VALUE": "21 nM"}
{"MOLECULE": "CCn1c(-c2nonc2N)nc2c(-c3cc4ccccc4s3)ncc(C(=O)N3CCC(N)C3)c21 (stereo not given)", "ASSAY VALUE": "89 nM"}

`O=C(Nc1cccc(-c2nn3ccccc3c2-c2ccnc(Nc3cccc(-c4cnco4)c3)n2)c1)C1CCCCC1` yielded IC50 of 612 nM

get_value(item= `N#Cc1ccc(C(=O)Nc2cc(-c3cccc(O)c3)cc3[nH]ncc23)cc1` , readout=IC50) returns 478 nM

According to the records, this molecule `O=C(Nc1cccc(-c2nn3ccccc3c2-c2ccnc(Nc3ccc(C(=O)N4CCOCC4)cc3)n2)c1)c1c(F)cccc1F` displays IC50 of 311 nM

`CCn1c(-c2nonc2N)nc2c(-c3cccc(NC(=O)NC45CC6CC(CC(C6)C4)C5)c3)ncc(OCCCN)c21` has a reported IC50 of 158 nM

get_value(item= `O=C(Nc1cccc(-c2nn3ncccc3c2-c2ccnc(Nc3ccccc3)n2)c1)c1c(F)cccc1F` , readout=IC50) returns 352 nM
